test system: Rat Paw Edema; test: Rat Paw Edema; assay type: in vivo; conditions: one dose per compound (Dose column, mg/kg): Nabumetone 79.0, 6-MNA 75.0, Indomethacin 10.0, Example 1 94.3, Example 2 121.0, Example 3 94.9, Example 4 121.0
The entries below come with measured % Inhibition values attached.

Solved cases (5 shown):
compound	targetDesc	readoutValue
COc1ccc2cc(CC(=O)OCC(=O)O)ccc2c1	Rat Paw Edema	58%
CCOC(=O)COC(=O)Cc1ccc2cc(OC)ccc2c1	Rat Paw Edema	38%
COc1ccc2cc(CC(=O)OCC(C)=O)ccc2c1	Rat Paw Edema	65%
COc1ccc2cc(CC(=O)O)ccc2c1	Rat Paw Edema	45%
COc1ccc2cc(CC(=O)OCCOCCO[N+](=O)[O-])ccc2c1	Rat Paw Edema	57%

## Task Look up and report measured % Inhibition (Rat Paw Edema) for the following compound: COc1ccc2c(c1)c(CC(=O)O)c(C)n2C(=O)c1ccc(Cl)cc1 [Indomethacin, reference compound]
## Result 51%

## Task Give % Inhibition; test system Rat Paw Edema; compound COc1ccc2cc(CCC(C)=O)ccc2c1 [Nabumetone, nabumetone, reference compound]
## Result 60%
